Target: α1d-adrenoceptor (recombinant) (Homo sapiens, UniProt P25100)
Sequence (P25100 whole entry): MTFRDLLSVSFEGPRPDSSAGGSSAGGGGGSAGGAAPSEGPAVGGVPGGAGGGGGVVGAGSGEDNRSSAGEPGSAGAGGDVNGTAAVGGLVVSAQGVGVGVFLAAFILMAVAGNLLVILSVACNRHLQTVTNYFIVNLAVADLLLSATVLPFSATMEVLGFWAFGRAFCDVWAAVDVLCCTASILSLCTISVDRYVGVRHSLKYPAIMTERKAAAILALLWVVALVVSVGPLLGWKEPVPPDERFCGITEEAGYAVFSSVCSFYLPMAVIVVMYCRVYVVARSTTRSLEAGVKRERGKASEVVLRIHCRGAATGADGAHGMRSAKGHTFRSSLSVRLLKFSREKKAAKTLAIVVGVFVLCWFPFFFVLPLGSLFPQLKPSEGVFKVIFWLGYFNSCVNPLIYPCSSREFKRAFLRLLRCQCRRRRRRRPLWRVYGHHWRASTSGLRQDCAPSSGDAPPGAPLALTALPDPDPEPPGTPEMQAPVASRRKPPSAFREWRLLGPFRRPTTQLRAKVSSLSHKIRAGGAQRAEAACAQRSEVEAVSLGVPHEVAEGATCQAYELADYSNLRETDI
Assay: Radioligand binding, cloned α1d-adrenoceptor ([3H]prazosin)
Settings: read-out: Affinity for recombinant α1d-adrenoceptor, cloned receptors (Ki)
Structures can show the parent of a compound that is named as a salt.
Reported Ki values for a set of molecules
Record the value in nM, omitting the unit from your answer.

These recorded examples may help you get a feel for the data.
- COc1ccc(C(F)(F)F)cc1N1CCN(CCCNC(=O)c2cccc3c(=O)c(C)c(-c4ccccc4)oc23)CC1: 13.1
- COc1ccc(OCC(F)(F)F)cc1N1CCN(CCCNC(=O)c2cccc3c(=O)c(C)c(C(N)=O)oc23)CC1: 467
- Cc1c(-c2ccccc2)oc2c(C(=O)NCCCN3CCN(c4cc(Cl)ccc4OS(=O)(=O)C(F)(F)F)CC3)cccc2c1=O [Example 24, hydrochloride]: 33.7
- Cc1c(-c2ccccc2)oc2c(C(=O)NCCCN3CCN(c4ccc(F)cc4OCC(F)(F)F)CC3)cccc2c1=O: 4.79
- COc1ccc(Cl)cc1N1CCN(CCCNC(=O)c2cccc3c(=O)c(C)c(C#N)oc23)CC1: 2.72
- Cc1c(C(N)=O)oc2c(C(=O)NCCCN3CCN(c4ccc(F)cc4OCC(F)(F)F)CC3)cccc2c1=O: 6.43

Request: Determine its reported Ki: `Cc1c(-c2ccccc2)oc2c(C(=O)NCCCN3CCN(c4cc(F)ccc4OCC(F)(F)F)CC3)cccc2c1=O`
Response: 0.32

Request: Determine its reported Ki: `COc1ccc(Cl)cc1N1CCN(CCCNC(=O)c2cccc3c(=O)c(C)c(C(C)=O)oc23)CC1`
Response: 2.68

Request: Determine its reported Ki: `COc1ccc(Cl)cc1N1CCN(CCCNC(=O)c2cccc3c(=O)c(C)c(C(=O)N(C)C)oc23)CC1`
Response: 3.83
